B1: Membrane-associated guanylate kinase, WW and PDZ domain-containing protein 1, residues 352 to 401; numbered along this chain, Q96QZ7 (parent)
chain: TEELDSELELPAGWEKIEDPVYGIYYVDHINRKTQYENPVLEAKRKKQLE

- Variants of: B1
- experiment-summary: abundance fitness (aPCA) (normalised: wild type 0, dead -1); higher = more abundant; growth selection in yeast, the domain comes from the species named
- test-conditions: Homo sapiens
readout-kind: abundance fitness
Answers are plain numbers.

{"sequence-variant": "I24E", "abundance fitness": 0.067}
{"sequence-variant": "R32G", "abundance fitness": -0.013}
{"sequence-variant": "L4S", "abundance fitness": -0.037}
{"sequence-variant": "R32S", "abundance fitness": -0.119}

I would be grateful if you could provide abundance fitness for each of the following entries.
1. L8V
2. V21Y
3. P11R
4. N31C
5. P11M

Reply text:
-0.266
-0.162
-0.494
-0.123
-0.185

Hey, just so you know, these numbers are from the Human Domainome abundance scans (Beltran et al. 2025).
